Target: UniProt:P25100
Sequence (P25100 whole entry): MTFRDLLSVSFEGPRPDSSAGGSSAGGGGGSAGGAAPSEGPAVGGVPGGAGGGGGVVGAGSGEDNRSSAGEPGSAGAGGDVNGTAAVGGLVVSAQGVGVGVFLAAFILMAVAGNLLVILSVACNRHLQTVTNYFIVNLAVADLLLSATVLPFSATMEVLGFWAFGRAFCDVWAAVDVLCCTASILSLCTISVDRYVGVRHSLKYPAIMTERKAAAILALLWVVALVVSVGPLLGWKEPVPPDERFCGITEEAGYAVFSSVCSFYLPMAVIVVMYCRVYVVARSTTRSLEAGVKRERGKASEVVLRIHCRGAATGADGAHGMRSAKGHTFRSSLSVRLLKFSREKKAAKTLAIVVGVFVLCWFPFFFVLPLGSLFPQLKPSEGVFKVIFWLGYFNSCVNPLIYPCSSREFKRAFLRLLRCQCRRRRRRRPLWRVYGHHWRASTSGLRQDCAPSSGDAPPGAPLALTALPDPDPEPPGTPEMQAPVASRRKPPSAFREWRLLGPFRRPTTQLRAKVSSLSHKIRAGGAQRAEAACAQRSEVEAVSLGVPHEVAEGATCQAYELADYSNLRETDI

structure-smiles-string	Ki [nM]
C/C=C1/CN2CC[C@]34C(=C(C(=O)OC)[C@H]1C[C@H]23)Nc1ccc(I)cc14	1140

----------
Biological target: Delta-type opioid receptor (Homo sapiens)
Assay: Agonist activity at human delta opioid receptor expressed in CHO-K1 cells assessed as inhibition of forskolin-stimulated cAMP accumulation at <1 uM by HitHunter assay based luminescence analysis
Assay type: functional, cell-based
Active and inactive are the calls of the source. No cut-off for these calls is given here.

compound	Activity
C/C=C1/CN2CC[C@]34C(=C(C(=O)OC)[C@H]1C[C@H]23)Nc1ccc(C#N)cc14	inactive
C/C=C1/CN2CC[C@]34C(=C(C(=O)OC)[C@H]1C[C@H]23)Nc1ccc(-c2ccoc2)cc14	inactive
C/C=C1/CN2CC[C@]34C(=C(C(=O)OC)[C@H]1C[C@H]23)Nc1ccc(-c2ccccc2)cc14	inactive
C/C=C1/CN2CC[C@]34C(=C(C(=O)OC)[C@H]1C[C@H]23)Nc1ccc(-c2ccsc2)cc14	inactive
C/C=C1/CN2CC[C@]34C(=C(C(=O)OC)[C@H]1C[C@H]23)Nc1ccc([N+](=O)[O-])cc14	inactive
C/C=C1/CN2CC[C@]34c5cc(I)ccc5NC3C(C(=O)OC)[C@H]1C[C@H]24 (stereo partly specified)	inactive

----------
Target: UniProt:P35372
Sequence (P35372 whole entry): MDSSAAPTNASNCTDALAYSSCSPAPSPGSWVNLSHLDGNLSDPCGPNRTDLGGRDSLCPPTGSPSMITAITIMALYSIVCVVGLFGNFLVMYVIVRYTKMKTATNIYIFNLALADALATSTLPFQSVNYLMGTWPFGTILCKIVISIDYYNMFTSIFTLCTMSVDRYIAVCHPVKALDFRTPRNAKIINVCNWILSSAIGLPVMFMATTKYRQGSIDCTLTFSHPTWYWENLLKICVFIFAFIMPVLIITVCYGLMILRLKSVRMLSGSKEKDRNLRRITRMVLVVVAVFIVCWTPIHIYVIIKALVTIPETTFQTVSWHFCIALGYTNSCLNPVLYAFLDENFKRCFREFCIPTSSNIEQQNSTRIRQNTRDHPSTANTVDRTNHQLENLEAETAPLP
Assay: Agonist activity at human mu opioid receptor expressed in CHO-K1 cells assessed as inhibition of forskolin-stimulated cAMP accumulation by HitHunter assay based luminescence analysis

structure-smiles-string	system	EC50, µM
C/C=C1/CN2CC[C@]34C(=C(C(=O)OC)[C@H]1C[C@H]23)Nc1ccc([N+](=O)[O-])cc14	UniProt:P35372	4
C/C=C1/CN2CC[C@]34C(=C(C(=O)OC)[C@H]1C[C@H]23)Nc1ccc(I)cc14	UniProt:P35372	41

----------
Target: Alpha-1A adrenergic receptor (Homo sapiens, UniProt P35348)
Sequence (P35348 whole entry): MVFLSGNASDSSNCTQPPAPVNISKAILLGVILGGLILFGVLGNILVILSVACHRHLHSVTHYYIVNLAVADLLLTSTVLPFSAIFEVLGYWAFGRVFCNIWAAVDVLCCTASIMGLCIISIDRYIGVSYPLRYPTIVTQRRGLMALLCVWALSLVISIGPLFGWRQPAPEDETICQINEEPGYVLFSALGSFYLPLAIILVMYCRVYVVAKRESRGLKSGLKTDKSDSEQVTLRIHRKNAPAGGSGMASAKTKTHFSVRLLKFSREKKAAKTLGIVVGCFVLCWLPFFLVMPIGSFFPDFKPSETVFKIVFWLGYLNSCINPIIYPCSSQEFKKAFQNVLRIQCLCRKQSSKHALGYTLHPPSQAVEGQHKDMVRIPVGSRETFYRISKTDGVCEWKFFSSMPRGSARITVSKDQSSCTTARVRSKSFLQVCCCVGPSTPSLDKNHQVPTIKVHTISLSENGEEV

structure-smiles-string	unit-label	Ki
C/C=C1/CN2CC[C@]34C(=C(C(=O)OC)[C@H]1C[C@H]23)Nc1ccc(Br)cc14	nM	1000
C/C=C1/CN2CC[C@]34C(=C(C(=O)OC)[C@H]1C[C@H]23)Nc1ccc(I)cc14	nM	883

----------
Reported values of Ki for individual entries
Test: Binding affinity to alpha7 […] receptor (unknown origin) by radioligand displacement assay
Parameters: species or system Homo sapiens
readout-label: Ki (µM)

structure-smiles-string	readout-number
C/C=C1/CN2CC[C@]34C(=C(C(=O)OC)[C@H]1C[C@H]23)Nc1ccc(I)cc14	5.49
C/C=C1/CN2CC[C@]34C(=C(C(=O)OC)[C@H]1C[C@H]23)Nc1ccc(Br)cc14	7

----------
pKi: −log10 of the molar value.
These molecules were tested on Voltage-gated inwardly rectifying potassium channel KCNH2 (Homo sapiens, UniProt Q12809); pKi is the recorded read-out.
Sequence (Q12809 whole entry): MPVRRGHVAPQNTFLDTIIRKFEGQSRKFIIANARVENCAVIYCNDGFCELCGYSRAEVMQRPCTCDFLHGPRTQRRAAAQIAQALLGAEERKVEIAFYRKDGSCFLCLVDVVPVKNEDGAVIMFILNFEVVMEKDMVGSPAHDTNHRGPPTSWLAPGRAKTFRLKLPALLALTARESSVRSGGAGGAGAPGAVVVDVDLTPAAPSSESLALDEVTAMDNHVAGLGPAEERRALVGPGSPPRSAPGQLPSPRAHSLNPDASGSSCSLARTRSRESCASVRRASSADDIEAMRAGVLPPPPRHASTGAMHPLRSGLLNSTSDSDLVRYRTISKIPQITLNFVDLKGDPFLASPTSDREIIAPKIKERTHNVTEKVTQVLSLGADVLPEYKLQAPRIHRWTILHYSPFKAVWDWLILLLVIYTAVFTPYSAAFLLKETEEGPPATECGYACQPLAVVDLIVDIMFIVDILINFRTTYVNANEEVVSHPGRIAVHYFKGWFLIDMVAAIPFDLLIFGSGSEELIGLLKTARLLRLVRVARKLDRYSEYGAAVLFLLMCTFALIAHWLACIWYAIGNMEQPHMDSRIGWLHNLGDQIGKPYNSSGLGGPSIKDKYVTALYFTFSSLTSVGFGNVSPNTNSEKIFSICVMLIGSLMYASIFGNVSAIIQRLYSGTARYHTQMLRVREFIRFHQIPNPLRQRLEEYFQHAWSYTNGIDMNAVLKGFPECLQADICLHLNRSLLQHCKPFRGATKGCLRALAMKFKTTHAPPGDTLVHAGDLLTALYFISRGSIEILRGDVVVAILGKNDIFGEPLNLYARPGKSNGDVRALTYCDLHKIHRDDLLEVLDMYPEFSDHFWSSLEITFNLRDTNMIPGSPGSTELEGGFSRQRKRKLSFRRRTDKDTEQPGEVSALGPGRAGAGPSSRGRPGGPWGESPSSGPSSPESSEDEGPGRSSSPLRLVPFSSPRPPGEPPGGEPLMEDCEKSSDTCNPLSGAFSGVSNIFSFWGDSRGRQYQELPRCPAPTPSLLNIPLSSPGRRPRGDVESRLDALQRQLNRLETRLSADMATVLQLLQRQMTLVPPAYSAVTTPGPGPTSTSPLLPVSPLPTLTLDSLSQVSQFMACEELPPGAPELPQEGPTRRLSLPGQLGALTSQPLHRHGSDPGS
readout-label: pKi

structure-smiles-string	readout-label	readout-number
C/C=C1/CN2CC[C@]34C(=C(C(=O)OC)[C@H]1C[C@H]23)Nc1ccc(I)cc14	pKi	5.96
C/C=C1/CN2CC[C@]34C(=C(C(=O)OC)[C@H]1C[C@H]23)Nc1ccc(Br)cc14	pKi	5.87

----------
Observed Ki values for 5-hydroxytryptamine receptor 5A (Homo sapiens) are listed in what follows.

compound	system	Ki
C/C=C1/CN2CC[C@]34C(=C(C(=O)OC)[C@H]1C[C@H]23)Nc1ccc(I)cc14	5-hydroxytryptamine receptor 5A (Homo sapiens)	0.829 µM
C/C=C1/CN2CC[C@]34C(=C(C(=O)OC)[C@H]1C[C@H]23)Nc1ccc(Br)cc14	5-hydroxytryptamine receptor 5A (Homo sapiens)	0.721 µM
C/C=C1/CN2CC[C@]34C(=C(C(=O)OC)[C@H]1C[C@H]23)Nc1ccccc14 [AKUAMMICINE]	5-hydroxytryptamine receptor 5A (Homo sapiens)	2.93 µM

This collection of values is drawn from ChEMBL document CHEMBL6074668.
